target: BACE-1 enzyme (Homo sapiens, UniProt P56817); construct: purchased R & D Systems 931AS; assay: BACE Fluorescence Resonance Energy Transfer (FRET) Assay; type: biochemical; settings: pH 4-4.5, 30 min pre-incubation, about 1.5 hours reaction, asterisk = mean
Sequence (P56817 46-457 limits assumed): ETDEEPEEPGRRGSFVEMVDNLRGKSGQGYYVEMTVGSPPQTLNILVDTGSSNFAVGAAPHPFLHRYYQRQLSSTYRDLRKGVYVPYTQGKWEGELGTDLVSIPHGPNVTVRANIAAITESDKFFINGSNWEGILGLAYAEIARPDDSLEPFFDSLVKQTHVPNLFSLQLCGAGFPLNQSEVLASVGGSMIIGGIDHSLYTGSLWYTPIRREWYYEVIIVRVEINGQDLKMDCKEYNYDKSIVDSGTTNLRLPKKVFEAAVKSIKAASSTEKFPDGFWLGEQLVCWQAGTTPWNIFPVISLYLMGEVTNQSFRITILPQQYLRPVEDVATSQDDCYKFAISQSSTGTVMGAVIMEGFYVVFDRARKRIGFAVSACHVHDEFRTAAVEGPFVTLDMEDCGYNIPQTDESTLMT
So basically, if IC50 comes in under 0.3 µM it's t, and if it's 0.3 µM or more it's f.

[in] Strictly below 0.3 µM: is that where IC50 of N[C@H]1CCN(c2ccc3nc(C(=O)Nc4nc5cc(-c6cccc(C(F)(F)F)c6)ccc5[nH]4)cn3n2)C1 sits?
[out] t

[in] Strictly below 0.3 µM: is that where IC50 of COC1CCN(c2ccc3nc(C(=O)Nc4nc5cc(C6CCC(C)(C)CC6)ccc5[nH]4)cn3n2)CC1 sits?
[out] f

[in] Strictly below 0.3 µM: is that where IC50 of CC1(C)CCC(c2ccc3[nH]c(NC(=O)c4cn5nc(N6CC[C@H](O)C6)ccc5n4)nc3c2)CC1 sits?
[out] t

[in] Strictly below 0.3 µM: is that where IC50 of CC1(C)CCC(c2ccc3[nH]c(NC(=O)c4cn5nc(C6CCNCC6)ccc5n4)nc3c2)CC1 sits?
[out] f

[in] Strictly below 0.3 µM: is that where IC50 of C[C@H](C[C@@H](C)O)Oc1ccc2nc(C(=O)Nc3nc4cc(-c5cccc(C(F)(F)F)c5)ccc4[nH]3)cn2n1 sits?
[out] f

[in] Strictly below 0.3 µM: is that where IC50 of COCCOc1ccc2nc(C(=O)Nc3nc4cc(-c5cccc(C(F)(F)F)c5)ccc4[nH]3)cn2n1 sits?
[out] t

---

Can you tell me IC50 for the items I'm about to list?
target: BACE-1 enzyme (Homo sapiens, UniProt P56817); construct: purchased R & D Systems 931AS; experiment: BACE Fluorescence Resonance Energy Transfer (FRET) Assay; type: biochemical; conditions: pH 4-4.5, 30 min pre-incubation, about 1.5 hours reaction, asterisk = mean
Note: a bare number is incomplete; add the unit.

[in] Fill in the blank: the reported IC50 of COC[C@H](COc1ccc2nc(C(=O)Nc3nc4cc(-c5cccc(C(F)(F)F)c5)ccc4[nH]3)cn2n1)OC is ____.
[out] 0.117 µM

[in] Fill in the blank: the reported IC50 of CN(C)CCOCCOc1ccc2nc(C(=O)Nc3nc4cc(-c5cccc(C(F)(F)F)c5)ccc4[nH]3)cn2n1 is ____.
[out] 0.194 µM

[in] Fill in the blank: the reported IC50 of CC(C)(C)NCCOc1ccc2nc(C(=O)Nc3nc4cc(-c5cccc(OC(F)(F)F)c5)ccc4[nH]3)cn2n1 is ____.
[out] 0.27 µM

[in] Fill in the blank: the reported IC50 of CC1CCC(c2ccc3[nH]c(NC(=O)c4cn5nc(N6CCOCC6)ccc5n4)nc3c2)CC1 (centres unmarked) is ____.
[out] 0.393 µM

[in] Fill in the blank: the reported IC50 of CO[C@@H]1CCN(c2ccc3nc(C(=O)Nc4nc5cc(C6CCC(C)(C)CC6)ccc5[nH]4)cn3n2)C1 is ____.
[out] 0.16 µM

[in] Fill in the blank: the reported IC50 of CC[C@@H](O)COc1ccc2nc(C(=O)Nc3nc4cc(-c5cc(F)cc(Cl)c5)ccc4[nH]3)cn2n1 is ____.
[out] 0.064 µM

[in] Fill in the blank: the reported IC50 of O=C(Nc1nc2cc(-c3cccc(OC(F)(F)F)c3)ccc2[nH]1)c1cn2nc(OCCO)ccc2n1 is ____.
[out] 0.172 µM

[in] Fill in the blank: the reported IC50 of CC(C)N(CCOc1ccc2nc(C(=O)Nc3nc4cc(-c5cccc(C(F)(F)F)c5)ccc4[nH]3)cn2n1)C(C)C is ____.
[out] 0.365 µM

[in] Fill in the blank: the reported IC50 of CNCCOc1ccc2nc(C(=O)Nc3nc4cc(-c5cc(F)cc(Cl)c5)ccc4[nH]3)cn2n1 is ____.
[out] 0.152 µM

[in] Fill in the blank: the reported IC50 of O=C(Nc1nc2cc(-c3ccc(Cl)c(C(F)(F)F)c3)ccc2[nH]1)c1cn2nc(OCCN3CCOCC3)ccc2n1 is ____.
[out] 0.22 µM

[in] Fill in the blank: the reported IC50 of NCCOc1ccc2nc(C(=O)Nc3nc4cc(-c5cccc(C(F)(F)F)c5)ccc4[nH]3)cn2n1 is ____.
[out] 0.14 µM

[in] Fill in the blank: the reported IC50 of CN(C)C(=O)COc1ccc2nc(C(=O)Nc3nc4cc(-c5cccc(C(F)(F)F)c5)ccc4[nH]3)cn2n1 is ____.
[out] 0.172 µM

[in] Fill in the blank: the reported IC50 of O=C(O)COc1ccc2nc(C(=O)Nc3nc4cc(-c5cccc(C(F)(F)F)c5)ccc4[nH]3)cn2n1 is ____.
[out] 0.161 µM

[in] Fill in the blank: the reported IC50 of CN(C)CCN(C)CCOc1ccc2nc(C(=O)Nc3nc4cc(-c5cccc(OC(F)(F)F)c5)ccc4[nH]3)cn2n1 is ____.
[out] 0.332 µM

[in] Fill in the blank: the reported IC50 of C[C@H](N)COc1ccc2nc(C(=O)Nc3nc4cc(-c5cccc(C(F)(F)F)c5)ccc4[nH]3)cn2n1 is ____.
[out] 0.219 µM

[in] Fill in the blank: the reported IC50 of CC(C)[C@H](O)COc1ccc2nc(C(=O)Nc3nc4cc(-c5cc(F)cc(Cl)c5)ccc4[nH]3)cn2n1 is ____.
[out] 0.357 µM

[in] Fill in the blank: the reported IC50 of CN1CCN(CCOc2ccc3nc(C(=O)Nc4nc5cc(-c6cccc(C(F)(F)F)c6)ccc5[nH]4)cn3n2)CC1 is ____.
[out] 0.232 µM

[in] Fill in the blank: the reported IC50 of O=C(Nc1nc2cc(-c3cc(F)cc(Cl)c3)ccc2[nH]1)c1cn2nc(OCCNC3CCCCC3)ccc2n1 is ____.
[out] 0.173 µM

[in] Fill in the blank: the reported IC50 of CN(C)CCOCCOc1ccc2nc(C(=O)Nc3nc4cc(-c5cccc(OC(F)(F)F)c5)ccc4[nH]3)cn2n1 is ____.
[out] 0.176 µM

[in] Fill in the blank: the reported IC50 of CC1(C)CCC(c2ccc3[nH]c(NC(=O)c4cn5nc(N6CC[C@@H](O)C6)ccc5n4)nc3c2)CC1 is ____.
[out] 0.089 µM

[in] Fill in the blank: the reported IC50 of COc1ccc2nc(C(=O)Nc3nc4cc(OCc5ccccc5)ccc4[nH]3)cn2n1 is ____.
[out] 0.105 µM

[in] Fill in the blank: the reported IC50 of O=C(Nc1nc2cc(-c3cc(F)cc(Cl)c3)ccc2[nH]1)c1cn2nc(OCC3(CO)CCC3)ccc2n1 is ____.
[out] 0.344 µM

[in] Fill in the blank: the reported IC50 of CN1CCN(CCOc2ccc3nc(C(=O)Nc4nc5cc(-c6cccc(OC(F)(F)F)c6)ccc5[nH]4)cn3n2)CC1 is ____.
[out] 0.315 µM

[in] Fill in the blank: the reported IC50 of O=C(Nc1nc2cc(-c3cccc(OC(F)(F)F)c3)ccc2[nH]1)c1cn2nc(OCCNC3CCCCC3)ccc2n1 is ____.
[out] 0.278 µM

[in] Fill in the blank: the reported IC50 of O=C(Nc1nc2cc(-c3cc(F)cc(Cl)c3)ccc2[nH]1)c1cn2nc(OCC3(CO)CC3)ccc2n1 is ____.
[out] 0.277 µM

[in] Fill in the blank: the reported IC50 of O=C(Nc1nc2cc(-c3cc(F)cc(Cl)c3)ccc2[nH]1)c1cn2nc(OC3CCOCC3)ccc2n1 is ____.
[out] 0.289 µM

[in] Fill in the blank: the reported IC50 of CC(C)OCCOc1ccc2nc(C(=O)Nc3nc4cc(-c5cccc(C(F)(F)F)c5)ccc4[nH]3)cn2n1 is ____.
[out] 0.272 µM

[in] Fill in the blank: the reported IC50 of O=C(Nc1nc2cc(-c3cc(F)cc(Cl)c3)ccc2[nH]1)c1cn2nc(OCC[C@@H](O)CO)ccc2n1 is ____.
[out] 0.293 µM

[in] Fill in the blank: the reported IC50 of CN1CCC(Oc2ccc3nc(C(=O)Nc4nc5cc(-c6cc(F)cc(Cl)c6)ccc5[nH]4)cn3n2)CC1 is ____.
[out] 0.219 µM

Cited source for all entries: patent US8450354B2
